- TARGET_OF_ASSAY: Voltage-gated potassium channel subunit beta-2 (Rattus norvegicus)
- MEASUREMENT_DESCRIPTION: inhibitors of rat Kvbeta2 reductase activity – biochemical, NADPH fluorescence, primary screen (AID 622);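 also: slope of raw intensity against log time taken from 70 to 1610 s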
- CONDITION_CONTEXT: recombinant KvBeta, 4-cyanobenzaldehyde reduction, at 10 µM, stronger effect = higher value
Tag: t if measured fluorescence slope is not below -0.4, f if it is.

COMPOUND | CAT
CCOC(=O)c1[nH]c(=O)c2ccccc2c1O | f
O=C(CCN1C(=O)c2ccccc2C1=O)N1CCN(C(=O)c2ccccc2)CC1 | f
CC1CCc2nn(CC(=O)N3CCN(C(=O)c4ccco4)CC3)cc2C1 (stereo unspecified) | f
COc1ccc(OC)c(Nc2nc(-c3sc(N)nc3C)cs2)c1 | t
CCOC(=O)N1CCN(C(=O)c2csc3c2CCCCC3)CC1 | t
COc1ccc(-c2[nH]c(-c3cccc(OC)c3)nc2SCC(=O)NCc2ccco2)cc1 | f
Cc1cccc2sc(NC(=O)CN(C)S(=O)(=O)c3cccs3)nc12 | f
Cc1cc(N2CCN(c3ccccn3)CC2)n2nc(C)nc2n1 | t
CCc1ccccc1NC(=O)c1cnc2n(c1=O)CCS2 | f
O=S(=O)(Nc1cccnc1)c1cc(Cl)ccc1Cl | t

Where do these numbers come from? They come from PubChem BioAssay.
